Observed IC50 for Cytochrome P450 2D6 (Homo sapiens, UniProt P10635), reported per entry below.
Express it in µM; write the number only.

1) CC[C@@H](C[C@H]1COC(N)=N1)c1ccccc1 3.6

Proceed to the following item.
Ask: I am curious: what IC50 value has been reported for `Cc1c(F)cccc1[C@H]1COC(N)=N1` ?
Reply: 32

====

assay: Clearance in human hepatocytes; type: ADME, cell-based, Hepatocyte
endpoint.label: CLhep predicted
# number then unit; no other words

1) CC[C@@H](C[C@H]1COC(N)=N1)c1ccccc1 2.9 mL/min/kg
2) NC1=N[C@@H](c2ccc(Cl)cc2C2CC2)CO1 10.1 mL/min/kg
3) C[C@]1(c2ccc(Br)cc2)COC(N)=N1 14.6 mL/min/kg

Ask: Dear colleague, I am looking for the recorded CLhep predicted of the following molecule: `CCc1cc(Cl)ccc1[C@H]1COC(N)=N1`
Reply: 13 mL/min/kg

Ask: Try this molecule too: `Cc1cc(Cl)ccc1[C@H]1COC(N)=N1`
Reply: 15 mL/min/kg

Ask: And what about the molecule `NC1=N[C@@H](c2ccc(Cl)c(Cl)c2)CO1` ?
Reply: 17.5 mL/min/kg

Ask: What do we get for `Cc1c(F)cccc1[C@H]1COC(N)=N1` ?
Reply: 14 mL/min/kg

====

target: Trace amine-associated receptor 1 (Homo sapiens); experiment: Agonist activity at human TAAR1 expressed in recombinant HEK293 cells assessed as cAMP accumulation after 30 mins by luminometer relative to phenethylamine; assay type: functional, cell-based
Simple rule here: Emax less than 80% is T, otherwise F.

Answered examples (2):
molecule	label.value
NC1=N[C@]2(CCc3cccc(Cl)c3C2)CO1	T
CC[C@@H](C[C@H]1COC(N)=N1)c1ccccc1	F

Ask: Record `NC1=N[C@@H](c2ccc(Cl)cc2C2CC2)CO1` : is its Emax strictly below 80%?
Reply: T

Ask: Try this molecule too: `CCc1cc(Cl)ccc1[C@H]1COC(N)=N1`
Reply: F

Ask: Would you mind doing `NC1=N[C@@H](c2ccccc2)CO1` as well?
Reply: F

Ask: Another: `NC1=N[C@H](Cc2ccccc2)CO1`
Reply: T

Ask: Another molecule: `NC1=N[C@@H](c2ccc(Br)cc2)CO1`
Reply: F

Ask: And for `NC1=N[C@@H](c2ccccc2Cl)CO1` ?
Reply: F

Ask: Input `CN(C[C@H]1COC(N)=N1)c1cccc(Cl)c1`
Reply: F

Ask: Another molecule: `C[C@]1(c2ccc(Br)cc2)COC(N)=N1`
Reply: T

Ask: # iterate: `NC1=N[C@@H](c2cccc(F)c2)CO1`
Reply: F

Ask: Here is the next molecule: `CC[C@H](C[C@H]1COC(N)=N1)c1ccccc1`
Reply: F

Ask: Lookup `NC1=N[C@@H](COc2cccc(Cl)c2)CO1`
Reply: F

Ask: Likewise for `CCN(C[C@@H]1COC(N)=N1)c1ccccc1` ?
Reply: F

====

The following are reported pIC50 results, target or system UniProt P08684.
Sequence (P08684 whole entry): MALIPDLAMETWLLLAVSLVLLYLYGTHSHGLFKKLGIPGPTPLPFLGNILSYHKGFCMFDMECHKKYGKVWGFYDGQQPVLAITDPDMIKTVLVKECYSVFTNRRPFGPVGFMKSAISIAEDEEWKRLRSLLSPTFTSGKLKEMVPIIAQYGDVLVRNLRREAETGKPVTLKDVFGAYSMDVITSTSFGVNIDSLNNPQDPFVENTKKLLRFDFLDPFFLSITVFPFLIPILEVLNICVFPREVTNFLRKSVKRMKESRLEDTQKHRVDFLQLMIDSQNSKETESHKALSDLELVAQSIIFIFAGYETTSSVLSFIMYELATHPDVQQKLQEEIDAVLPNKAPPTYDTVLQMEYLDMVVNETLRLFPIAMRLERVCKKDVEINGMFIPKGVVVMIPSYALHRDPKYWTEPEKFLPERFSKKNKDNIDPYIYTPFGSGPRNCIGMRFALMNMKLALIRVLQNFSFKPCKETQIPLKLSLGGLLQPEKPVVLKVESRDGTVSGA
pIC50: −log10 of the molar value.

1) Cc1c(F)cccc1[C@H]1COC(N)=N1 < 4.30

We next turn to a different molecule, shown below.
Ask: # input molecule: `CC[C@@H](C[C@H]1COC(N)=N1)c1ccccc1` ; wanted: its pIC50
Reply: < 4.30
